# protocol.description: Tmax in NCR nude mouse at 100 mg/kg, po
# Format: ADME, organism-based
# Set-up: dose 100 mg/kg, route oral
# measurement.parameters: in vivo
endpoint.name: Tmax (min)

[
  {
    "line.notation": "O=C(NCc1ccc(S(=O)(=O)c2cccc(C(F)(F)F)c2)cc1)c1cnc2[nH]ncc2c1",
    "endpoint.name": "Tmax",
    "units.of.measure": "min",
    "reading": 15
  }
]

* * *

# protocol.description: Aqueous solubility of the compound in PBS at pH 7.2 by LC/CLND analysis
# Format: physicochemical
# solubility per entry
endpoint.name: solubility

[
  {
    "line.notation": "O=C(NCc1ccc(S(=O)(=O)c2cccc(C(F)(F)F)c2)cc1)c1cnc2[nH]ncc2c1",
    "endpoint.name": "solubility",
    "reading": "1.4 µM"
  },
  {
    "line.notation": "O=C(NCc1ccc(S(=O)(=O)c2cncc(Cl)c2)cc1)c1cnc2[nH]ncc2c1",
    "endpoint.name": "solubility",
    "reading": "< 1 µM"
  },
  {
    "line.notation": "O=C(NCc1ccc(S(=O)(=O)c2cccc(OC(F)(F)F)c2)cc1)c1cnc2[nH]ncc2c1",
    "endpoint.name": "solubility",
    "reading": "< 1 µM"
  },
  {
    "line.notation": "O=C(NCc1ccc(S(=O)(=O)c2cncc(C(F)(F)F)c2)cc1)c1cnc2[nH]ncc2c1",
    "endpoint.name": "solubility",
    "reading": "< 1 µM"
  },
  {
    "line.notation": "O=C(NCc1ccc(S(=O)(=O)c2cc(F)cc(F)c2)cc1)c1cnc2[nH]ncc2c1",
    "endpoint.name": "solubility",
    "reading": "< 1 µM"
  }
]
